- targetOfAssay: human orexin-2 receptor (Homo sapiens (Human))
- Sequence (O43614 whole entry): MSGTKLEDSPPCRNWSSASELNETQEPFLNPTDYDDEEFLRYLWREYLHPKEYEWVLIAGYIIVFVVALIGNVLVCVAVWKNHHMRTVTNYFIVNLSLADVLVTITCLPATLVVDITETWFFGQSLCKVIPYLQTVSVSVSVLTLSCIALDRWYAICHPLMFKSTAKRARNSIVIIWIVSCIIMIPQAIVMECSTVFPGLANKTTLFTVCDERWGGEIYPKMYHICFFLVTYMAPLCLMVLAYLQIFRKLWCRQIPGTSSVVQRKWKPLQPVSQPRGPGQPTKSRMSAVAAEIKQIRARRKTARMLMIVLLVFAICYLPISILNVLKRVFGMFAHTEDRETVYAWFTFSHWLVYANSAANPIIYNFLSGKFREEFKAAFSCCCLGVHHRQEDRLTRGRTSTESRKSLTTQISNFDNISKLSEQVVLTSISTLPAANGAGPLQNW
- procedureDetails: Intracellular calcium measurement (FLIPR), CHO cells expressing human orexin-2 receptor, 3 nM orexin-A
- Format: cell-based
- particulars: CHO cells expressing human orexin-2 receptor, FLIPR, 3 nM orexin-A; geometric mean if determined several times; read-out: IC50 OX2
resultType: IC50 (nM)

Cc1ccc(-n2nccn2)c(C(=O)N2CCC[C@H]2c2cc(-c3cccnc3OC(C)C)no2)c1 :: 292
Cc1ccc(C(=O)N2CCC[C@H]2c2nc(-c3ccccc3OC(F)(F)F)no2)c(-n2nccn2)c1 :: 15

I = CCOc1ccccc1-c1noc([C@@H]2CCCN2C(=O)c2cccc(F)c2-c2ccn[nH]2)n1
II = Cc1cc(C(=O)N2CCC[C@@]2(C)c2nnc(-c3ccccc3OC(F)(F)F)[nH]2)c(-n2nccn2)cc1C
Qu. Which record would sort first by descending IC50, I or II ? Bench note: the answer is the label of the chosen record.
Ans. I
(I: 20 nM, II: 8 nM)
